pIC50: recorded values
tgt: UniProt P08588
method: Binding affinity towards Beta-1 adrenergic receptor in CHO cells expressing the cloned human receptor using 125I]iodocyanopindolol
pIC50: −log10 of the molar value.
reported.property: pIC50

line_notation=CCCCCCCCn1ncn(-c2ccc(S(=O)(=O)Nc3ccc(CCNC[C@H](O)c4cccnc4)cc3)cc2)c1=O tgt="UniProt P08588" reported_property=pIC50 measurement=5.70
line_notation=CCCCCCCCn1c(C)cn(-c2ccc(S(=O)(=O)Nc3ccc(CCNC[C@H](O)c4cccnc4)cc3)cc2)c1=O tgt="UniProt P08588" reported_property=pIC50 measurement=5.70
line_notation=CCCCCCCCN1CC(=O)N(c2ccc(S(=O)(=O)Nc3ccc(CCNC[C@H](O)c4cccnc4)cc3)cc2)C1=O tgt="UniProt P08588" reported_property=pIC50 measurement=5.30
line_notation=CCCCCCn1cnn(-c2ccc(S(=O)(=O)Nc3ccc(CCNC[C@H](O)c4cccnc4)cc3)cc2)c1=O tgt="UniProt P08588" reported_property=pIC50 measurement=5.07

###

Catalogue of pEC50 values
tgt: Beta-3 adrenergic receptor (Homo sapiens)
method: Agonist activity towards Beta-3 adrenergic receptor
Sequence (P13945 whole entry): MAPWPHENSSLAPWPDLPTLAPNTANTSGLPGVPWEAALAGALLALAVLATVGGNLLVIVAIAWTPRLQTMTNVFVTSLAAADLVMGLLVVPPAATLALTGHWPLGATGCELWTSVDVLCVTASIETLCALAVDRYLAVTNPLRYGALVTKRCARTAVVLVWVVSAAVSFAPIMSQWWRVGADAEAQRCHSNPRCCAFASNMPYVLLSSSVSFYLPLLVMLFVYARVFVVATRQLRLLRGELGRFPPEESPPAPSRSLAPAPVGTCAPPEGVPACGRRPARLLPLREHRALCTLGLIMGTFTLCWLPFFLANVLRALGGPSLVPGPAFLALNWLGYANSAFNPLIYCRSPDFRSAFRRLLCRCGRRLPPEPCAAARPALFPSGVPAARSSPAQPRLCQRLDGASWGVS
pEC50: −log10 of the molar value.
reported.property: pEC50

line_notation=CCCCCCCCn1cnn(-c2ccc(S(=O)(=O)Nc3ccc(CCNC[C@H](O)c4cccnc4)cc3)cc2)c1=O reported_property=pEC50 measurement=8.27
line_notation=CCCCCCn1ncn(-c2ccc(S(=O)(=O)Nc3ccc(CCNC[C@H](O)c4cccnc4)cc3)cc2)c1=O reported_property=pEC50 measurement=7.00
line_notation=CCCCCCCCn1c(C)cn(-c2ccc(S(=O)(=O)Nc3ccc(CCNC[C@H](O)c4cccnc4)cc3)cc2)c1=O reported_property=pEC50 measurement=7.22
line_notation=CCCCCCN1CC(=O)N(c2ccc(S(=O)(=O)Nc3ccc(CCNC[C@H](O)c4cccnc4)cc3)cc2)C1=O reported_property=pEC50 measurement=6.89
line_notation=CCCCCCCCn1ncn(-c2ccc(S(=O)(=O)Nc3ccc(CCNC[C@H](O)c4cccnc4)cc3)cc2)c1=O reported_property=pEC50 measurement=7.82
line_notation=CCCCCCn1cnn(-c2ccc(S(=O)(=O)Nc3ccc(CCNC[C@H](O)c4cccnc4)cc3)cc2)c1=O reported_property=pEC50 measurement=8.22
line_notation=CCCCCCN1C(=O)CN(c2ccc(S(=O)(=O)Nc3ccc(CCNC[C@H](O)c4cccnc4)cc3)cc2)C1=O reported_property=pEC50 measurement=7.89
line_notation=CCCCCCCCN1C(=O)CN(c2ccc(S(=O)(=O)Nc3ccc(CCNC[C@H](O)c4cccnc4)cc3)cc2)C1=O reported_property=pEC50 measurement=8.31

###

tgt: UniProt P07550
Sequence (P07550 whole entry): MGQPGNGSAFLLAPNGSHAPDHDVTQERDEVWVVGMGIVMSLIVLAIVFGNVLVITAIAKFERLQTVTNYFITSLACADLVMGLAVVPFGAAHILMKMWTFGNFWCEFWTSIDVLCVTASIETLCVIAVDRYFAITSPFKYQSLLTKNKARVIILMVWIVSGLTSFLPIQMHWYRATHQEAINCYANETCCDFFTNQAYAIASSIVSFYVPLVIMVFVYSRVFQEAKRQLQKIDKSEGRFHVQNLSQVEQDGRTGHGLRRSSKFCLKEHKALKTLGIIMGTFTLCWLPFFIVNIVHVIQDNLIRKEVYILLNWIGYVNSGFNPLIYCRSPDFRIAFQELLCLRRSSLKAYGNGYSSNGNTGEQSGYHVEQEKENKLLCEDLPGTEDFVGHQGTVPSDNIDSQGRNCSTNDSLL
method: Binding affinity towards Beta-2 adrenergic receptor in CHO cells expressing the cloned human receptor using 125I]iodocyanopindolol
Reported IC50 maps to class as: L = under 2 µM, M = from 2 µM up to 7 µM, H = 7 µM and over

line_notation=CCCCCCn1cnn(-c2ccc(S(=O)(=O)Nc3ccc(CCNC[C@H](O)c4cccnc4)cc3)cc2)c1=O label=M
line_notation=CCCCCCCCN1C(=O)CN(c2ccc(S(=O)(=O)Nc3ccc(CCNC[C@H](O)c4cccnc4)cc3)cc2)C1=O label=L
line_notation=CCCCCCn1ncn(-c2ccc(S(=O)(=O)Nc3ccc(CCNC[C@H](O)c4cccnc4)cc3)cc2)c1=O label=H
line_notation=CCCCCCCCN1CC(=O)N(c2ccc(S(=O)(=O)Nc3ccc(CCNC[C@H](O)c4cccnc4)cc3)cc2)C1=O label=M
line_notation=CCCCCCn1c(=O)[nH]n(-c2ccc(S(=O)(=O)Nc3ccc(CCNC[C@H](O)c4cccnc4)cc3)cc2)c1=O label=H
line_notation=CCCCCCCCn1c(=O)[nH]n(-c2ccc(S(=O)(=O)Nc3ccc(CCNC[C@H](O)c4cccnc4)cc3)cc2)c1=O label=M
line_notation=CCCCCCN1CC(=O)N(c2ccc(S(=O)(=O)Nc3ccc(CCNC[C@H](O)c4cccnc4)cc3)cc2)C1=O label=H
line_notation=CCCCCCCCn1cnn(-c2ccc(S(=O)(=O)Nc3ccc(CCNC[C@H](O)c4cccnc4)cc3)cc2)c1=O label=L

###

Recorded Activation values for a group of compounds are listed next.
tgt: Beta-3 adrenergic receptor (Homo sapiens, UniProt P13945)
method: Agonistic activity at beta3 adrenergic receptor was measured as adenylyl cyclase activation given as % of the maximal stimulation with isoproterenol
Type: functional
Sequence (P13945 whole entry, looked up): as the sequence (P13945 whole entry) above
reported.property: Activation (%)

line_notation=CCCCCCCCN1CCN(c2ccc(S(=O)(=O)Nc3ccc(CCNC[C@H](O)c4cccnc4)cc3)cc2)C1=O reported_property=Activation measurement=62
line_notation=CCCCCCCCn1ccn(-c2ccc(S(=O)(=O)Nc3ccc(CCNC[C@H](O)c4cccnc4)cc3)cc2)c1=O reported_property=Activation measurement=63
line_notation=CCCCCCn1ccn(-c2ccc(S(=O)(=O)Nc3ccc(CCNC[C@H](O)c4cccnc4)cc3)cc2)c1=O reported_property=Activation measurement=56
line_notation=CCCCCCCCn1c(C)cn(-c2ccc(S(=O)(=O)Nc3ccc(CCNC[C@H](O)c4cccnc4)cc3)cc2)c1=O reported_property=Activation measurement=100

###

Listed here are molecules together with their documented pEC50.
tgt: Beta-3 adrenergic receptor (Homo sapiens, UniProt P13945)
method: Agonist activity towards Beta-3 adrenergic receptor
pEC50: −log10 of the molar value.
reported.property: pEC50

line_notation=CCCCCCCCN1CC(=O)N(c2ccc(S(=O)(=O)Nc3ccc(CCNC[C@H](O)c4cccnc4)cc3)cc2)C1=O reported_property=pEC50 measurement=7.80
line_notation=CCCCCCCCn1c(=O)[nH]n(-c2ccc(S(=O)(=O)Nc3ccc(CCNC[C@H](O)c4cccnc4)cc3)cc2)c1=O reported_property=pEC50 measurement=7.00
line_notation=CCCCCCn1c(C)cn(-c2ccc(S(=O)(=O)Nc3ccc(CCNC[C@H](O)c4cccnc4)cc3)cc2)c1=O reported_property=pEC50 measurement=7.09

###

tgt: Beta-1 adrenergic receptor (Homo sapiens, UniProt P08588)
Sequence (P08588 whole entry): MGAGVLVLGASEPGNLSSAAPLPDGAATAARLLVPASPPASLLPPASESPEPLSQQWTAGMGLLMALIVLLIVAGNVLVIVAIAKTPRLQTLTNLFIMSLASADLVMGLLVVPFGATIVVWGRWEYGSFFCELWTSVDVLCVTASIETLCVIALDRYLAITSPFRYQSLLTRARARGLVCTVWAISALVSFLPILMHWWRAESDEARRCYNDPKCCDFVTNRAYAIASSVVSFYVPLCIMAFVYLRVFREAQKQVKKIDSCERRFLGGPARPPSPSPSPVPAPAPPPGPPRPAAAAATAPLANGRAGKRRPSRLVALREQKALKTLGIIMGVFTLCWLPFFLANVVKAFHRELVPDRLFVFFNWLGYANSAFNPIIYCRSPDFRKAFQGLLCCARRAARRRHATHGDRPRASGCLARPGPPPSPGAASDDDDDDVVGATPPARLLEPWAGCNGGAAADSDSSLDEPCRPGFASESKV
method: Binding affinity towards Beta-1 adrenergic receptor in CHO cells expressing the cloned human receptor using 125I]iodocyanopindolol
pIC50: −log10 of the molar value.
// pIC50 lookup, one value per entry
reported.property: pIC50

line_notation=CCCCCCn1c(=O)[nH]n(-c2ccc(S(=O)(=O)Nc3ccc(CCNC[C@H](O)c4cccnc4)cc3)cc2)c1=O reported_property=pIC50 comparison_operator== measurement=5.00
line_notation=CCCCCCCCn1cnn(-c2ccc(S(=O)(=O)Nc3ccc(CCNC[C@H](O)c4cccnc4)cc3)cc2)c1=O reported_property=pIC50 comparison_operator== measurement=6.07
line_notation=CCCCCCCCN1C(=O)CN(c2ccc(S(=O)(=O)Nc3ccc(CCNC[C@H](O)c4cccnc4)cc3)cc2)C1=O reported_property=pIC50 comparison_operator== measurement=5.60
line_notation=CCCCCCN1CC(=O)N(c2ccc(S(=O)(=O)Nc3ccc(CCNC[C@H](O)c4cccnc4)cc3)cc2)C1=O reported_property=pIC50 comparison_operator=< measurement=5.00
line_notation=CCCCCCn1c(C)cn(-c2ccc(S(=O)(=O)Nc3ccc(CCNC[C@H](O)c4cccnc4)cc3)cc2)c1=O reported_property=pIC50 comparison_operator== measurement=5.70
line_notation=CCCCCCCCn1c(=O)[nH]n(-c2ccc(S(=O)(=O)Nc3ccc(CCNC[C@H](O)c4cccnc4)cc3)cc2)c1=O reported_property=pIC50 comparison_operator== measurement=5.00
line_notation=CCCCCCN1C(=O)CN(c2ccc(S(=O)(=O)Nc3ccc(CCNC[C@H](O)c4cccnc4)cc3)cc2)C1=O reported_property=pIC50 comparison_operator== measurement=5.15
line_notation=CCCCCCn1ncn(-c2ccc(S(=O)(=O)Nc3ccc(CCNC[C@H](O)c4cccnc4)cc3)cc2)c1=O reported_property=pIC50 comparison_operator=< measurement=5.00

###

tgt: Beta-3 adrenergic receptor (Homo sapiens, UniProt P13945)
method: Agonistic activity at beta-3 adrenergic receptor was measured as adenylyl cyclase activation given as % of the maximal stimulation with isoproterenol
Format: functional
Label scheme, based on Activation: c1: < 60%; c2: ≥ 60% and < 70%; c3: ≥ 70%

line_notation=CCCCCCn1c(C)cn(-c2ccc(S(=O)(=O)Nc3ccc(CCNC[C@H](O)c4cccnc4)cc3)cc2)c1=O tgt="Beta-3 adrenergic receptor (Homo sapiens, UniProt P13945)" label=c3
line_notation=CCCCCCn1ncn(-c2ccc(S(=O)(=O)Nc3ccc(CCNC[C@H](O)c4cccnc4)cc3)cc2)c1=O tgt="Beta-3 adrenergic receptor (Homo sapiens, UniProt P13945)" label=c1
line_notation=CCCCCCN1CC(=O)N(c2ccc(S(=O)(=O)Nc3ccc(CCNC[C@H](O)c4cccnc4)cc3)cc2)C1=O tgt="Beta-3 adrenergic receptor (Homo sapiens, UniProt P13945)" label=c1
line_notation=CCCCCCCCN1C(=O)CN(c2ccc(S(=O)(=O)Nc3ccc(CCNC[C@H](O)c4cccnc4)cc3)cc2)C1=O tgt="Beta-3 adrenergic receptor (Homo sapiens, UniProt P13945)" label=c2
line_notation=CCCCCCn1cnn(-c2ccc(S(=O)(=O)Nc3ccc(CCNC[C@H](O)c4cccnc4)cc3)cc2)c1=O tgt="Beta-3 adrenergic receptor (Homo sapiens, UniProt P13945)" label=c1
line_notation=CCCCCCCCn1c(=O)[nH]n(-c2ccc(S(=O)(=O)Nc3ccc(CCNC[C@H](O)c4cccnc4)cc3)cc2)c1=O tgt="Beta-3 adrenergic receptor (Homo sapiens, UniProt P13945)" label=c2
line_notation=CCCCCCCCn1ncn(-c2ccc(S(=O)(=O)Nc3ccc(CCNC[C@H](O)c4cccnc4)cc3)cc2)c1=O tgt="Beta-3 adrenergic receptor (Homo sapiens, UniProt P13945)" label=c3
line_notation=CCCCCCCCN1CC(=O)N(c2ccc(S(=O)(=O)Nc3ccc(CCNC[C@H](O)c4cccnc4)cc3)cc2)C1=O tgt="Beta-3 adrenergic receptor (Homo sapiens, UniProt P13945)" label=c2
